The reported numbers originate from BigSolDB 2.1.

assay-context: in acetone, 303.15 K
parameter: solubility (mole fraction)

Input: So what's the measured solubility (mole fraction) for this one? Cc1ccc2cc(Br)ccc2n1
Output: 0.0149

====

assay-context: in toluene, 308.15 K
parameter: solubility (mole fraction)
Write the value as a bare number.

Input: Sample Cc1ccc2cc(Br)ccc2n1 — what was its solubility (mole fraction)?
Output: 0.0212

====

assay-context: in acetonitrile, 323.15 K
parameter: solubility (mole fraction)

Input: Query: solubility (mole fraction); subject: Cc1ccc2cc(Br)ccc2n1
Output: 0.0253

====

assay-context: in water, 308.15 K
parameter: solubility (mole fraction)
Form rule: numeric answer, no unit written next to it.

Input: Which solubility (mole fraction) value is on record for Cc1ccc2cc(Br)ccc2n1 ?
Output: 1.82e-05
